# TESTED TARGET: phosphorylated Btk at Tyr223 in Ramos cells (Homo sapiens (Human), UniProt Q06187)
# MEASUREMENT DESCRIPTION: Btk pY223 cellular assay (HTRF) in Ramos cells
# Format: cell-based
# STUDY CONDITIONS: 1 hour compound incubation, pervanadate or Na3VO4 stimulation
Please provide measured IC50 for the entries that follow.
Write it as a number; the unit nM goes unstated.

Would you mind telling me what IC50 value was observed for CN(C)CC#CC(=O)N1CCC([C@@H]2CCNc3c(C(N)=O)c(-c4ccc(Oc5ccccc5)cc4)nn32)CC1 [Compound 188] ?
8.5

Would you mind telling me what IC50 value was observed for C=CC(=O)Nc1ccc2c(c1)-n1nc(-c3ccc(Oc4ccccc4)cc3)c(C(N)=O)c1NC2 [Compound 69] ?
34.4

====

Please provide measured pIC50 for the entries that follow.
# TESTED TARGET: Recombinant Btk (Homo sapiens (Human))
# Sequence (Q06187 whole entry): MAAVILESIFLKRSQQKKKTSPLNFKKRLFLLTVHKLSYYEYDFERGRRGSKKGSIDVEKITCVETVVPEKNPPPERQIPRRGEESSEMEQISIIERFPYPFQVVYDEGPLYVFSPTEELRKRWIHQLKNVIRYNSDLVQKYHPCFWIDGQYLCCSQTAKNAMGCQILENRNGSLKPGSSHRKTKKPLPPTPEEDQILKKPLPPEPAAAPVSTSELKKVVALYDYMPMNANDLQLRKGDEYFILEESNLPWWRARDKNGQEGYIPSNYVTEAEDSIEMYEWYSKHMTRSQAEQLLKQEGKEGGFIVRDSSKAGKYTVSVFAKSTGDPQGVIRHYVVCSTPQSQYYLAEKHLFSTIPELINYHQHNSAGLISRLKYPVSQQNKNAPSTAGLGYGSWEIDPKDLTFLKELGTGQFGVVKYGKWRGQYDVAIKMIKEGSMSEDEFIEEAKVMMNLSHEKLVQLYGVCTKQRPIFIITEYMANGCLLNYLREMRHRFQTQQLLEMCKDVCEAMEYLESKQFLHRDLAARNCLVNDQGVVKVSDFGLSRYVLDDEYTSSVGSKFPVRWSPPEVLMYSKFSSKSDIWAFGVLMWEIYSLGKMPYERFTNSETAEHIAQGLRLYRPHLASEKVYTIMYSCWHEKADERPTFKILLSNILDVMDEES
# MEASUREMENT DESCRIPTION: Btk kinase assay (TR-FRET)
Where a name gives a salt, the structure may show the parent alone.
pIC50 (log units): -log10 of the concentration in mol/L.

Would you mind telling me what pIC50 value was observed for NC(=O)c1c(-c2ccc(Oc3ccccc3)cc2)nn2c1NCC[C@H]2C1CCN(C(=O)/C=C/CN2CCN(CCNC(=O)CCCC(=O)NCCCOCCOCCOCCCNC(=O)CCCC[C@H]3SC[C@H]4NC(=O)N[C@H]43)CC2)CC1 [Compound 178, trifluoroacetate] ?
7.34

Would you mind telling me what pIC50 value was observed for C=CC(=O)N1CC[C@H]2[C@H](CNc3c(C(N)=O)c(-c4ccc(Oc5ccccc5)cc4)nn32)C1 (relative stereo) ?
9.00

Would you mind telling me what pIC50 value was observed for CN(C)C/C=C/C(=O)N1CCC(C2CCNc3c(C(N)=O)c(-c4ccc(Oc5ccccc5)cc4)nn32)CC1 (single isomer, unassigned) ?
8.85

====

# TESTED TARGET: phosphorylated Btk at Tyr223 in Ramos cells (Homo sapiens (Human))
# MEASUREMENT DESCRIPTION: Btk pY223 cellular assay (HTRF) in Ramos cells
# Type: cell-based
# STUDY CONDITIONS: 1 hour compound incubation, pervanadate or Na3VO4 stimulation
Please provide measured IC50 for the entries that follow.
Answers without a unit are incomplete; give the number and then its unit.

So what IC50 did C=CC(=O)N1CC(C2CCNc3c(C(N)=O)c(-c4ccc(Oc5cccc(Cl)c5)cc4)nn32)C1 (stereo not drawn) get with phosphorylated Btk at Tyr223 in Ramos cells (Homo sapiens (Human))?
11.2 nM

So what IC50 did C=CC(=O)Nc1ccc2c(c1)CCNc1c(C(N)=O)c(-c3ccc(Oc4ccccc4)cc3)nn1-2 get with phosphorylated Btk at Tyr223 in Ramos cells (Homo sapiens (Human))?
10.5 nM

So what IC50 did NC(=O)c1c(-c2ccc(Oc3ccccc3)cc2)nn2c1NCCC2C1CCN(C(=O)/C=C/CN2CCCCC2)CC1 (stereo not drawn) get with phosphorylated Btk at Tyr223 in Ramos cells (Homo sapiens (Human))?
33.7 nM

So what IC50 did CN(C)C/C=C/C(=O)N1CCc2[nH]c3c(C(N)=O)c(-c4ccc(Oc5ccccc5)cc4)nn3c2CC1 get with phosphorylated Btk at Tyr223 in Ramos cells (Homo sapiens (Human))?
12.6 nM

So what IC50 did CCC#CC(=O)N1CCC([C@@H]2CCNc3c(C(N)=O)c(-c4ccc(Oc5ccccc5)cc4)nn32)CC1 get with phosphorylated Btk at Tyr223 in Ramos cells (Homo sapiens (Human))?
10.3 nM

So what IC50 did CN(C)C/C=C/C(=O)Nc1ccccc1C1CCNc2c(C(N)=O)c(-c3ccc(Oc4ccccc4)cc3)nn21 (stereo not drawn) get with phosphorylated Btk at Tyr223 in Ramos cells (Homo sapiens (Human))?
7 nM

So what IC50 did C=CC(=O)Nc1ccccc1C1CCNc2c(C(N)=O)c(-c3ccc(OCc4ccccc4)cc3)nn21 (stereo not drawn) get with phosphorylated Btk at Tyr223 in Ramos cells (Homo sapiens (Human))?
8 nM

So what IC50 did CC=CC(=O)N1CCc2[nH]c3c(C(N)=O)c(-c4ccc(Oc5ccccc5)cc4)nn3c2C1 get with phosphorylated Btk at Tyr223 in Ramos cells (Homo sapiens (Human))?
4.6 nM

So what IC50 did C=CC(=O)N1CC(C2CCNc3c(C(N)=O)c(-c4ccc(Oc5ccccc5)c(Cl)c4)nn32)C1 (stereo not drawn) get with phosphorylated Btk at Tyr223 in Ramos cells (Homo sapiens (Human))?
3.1 nM
